- test target: HLA-A*31:01
- experiment description: IEDB peptide-MHC binding, purified MHC/competitive/radioactivity; filed as Kd, often an IC50 or EC50 that approximates it; bounds were set here for any values at or beyond the usual limits of such assays
- condition details: source organism: Dengue virus 4 Philippines/H241/1956
quantity measured: pKd
pKd (log units): -log10 of the concentration in mol/L.

Problem: Given the sequence EMGANFRAGR , what is its reported pKd?
Solution: 7.17

Problem: // returns reported pKd for input KLVTQWCCR
Solution: 7.92

Problem: What pKd value was documented for this sequence, GYVLGIFLR ?
Solution: 7.80

###

- test target: HLA-A*02:12
- experiment description: IEDB peptide-MHC binding, purified MHC/direct/fluorescence; filed as Kd, often an IC50 or EC50 that approximates it; bounds were set here for any values at or beyond the usual limits of such assays
- condition details: source organism: Ebola virus Yambio0403
pKd: −log10 of the molar value.
quantity measured: pKd

Problem: Observed pKd on HLA-A*02:12 for ESLLHQASW , please.
Solution: ≤ 4.70

###

Give measured pKd for each item. Keep answers brief.
- test target: HLA-A*11:01
- experiment description: IEDB peptide-MHC binding, purified MHC/direct/fluorescence; filed as Kd, often an IC50 or EC50 that approximates it; bounds were set here for any values at or beyond the usual limits of such assays
- condition details: source organism: Escherichia coli O157:H7
pKd: −log10 of the molar value.

Problem: Give the measured pKd of AHGWSTFYL .
Solution: ≤ 4.70

Problem: Given the entry LPEFERRTL , report its measured pKd.
Solution: ≤ 4.70

Problem: GET /values?readout=pKd&item= PLKVKDIPF
Solution: ≤ 4.70

###

- test target: HLA-B*18:01
- experiment description: IEDB peptide-MHC binding, purified MHC/competitive/fluorescence; filed as Kd, often an IC50 or EC50 that approximates it; bounds were set here for any values at or beyond the usual limits of such assays
- condition details: source organism: Orthohantavirus tulaense
pKd: −log10 of the molar value.
quantity measured: pKd

Problem: Looking for the measured pKd of VVDALRNIY , can you help?
Solution: ≤ 4.70

###

- test target: HLA-B*18:01
- experiment description: IEDB peptide-MHC binding, purified MHC/competitive/radioactivity; filed as Kd, often an IC50 or EC50 that approximates it; bounds were set here for any values at or beyond the usual limits of such assays
- condition details: source organism: Lassa virus Josiah
pKd: −log10 of the molar value.
quantity measured: pKd

Problem: Which pKd value is on record for YDHALMSII ?
Solution: ≤ 4.60

###

- test target: HLA-A*11:01
- experiment description: IEDB peptide-MHC binding, purified MHC/direct/fluorescence; filed as Kd, often an IC50 or EC50 that approximates it; bounds were set here for any values at or beyond the usual limits of such assays
- condition details: source organism: Influenza A virus (A/turkey/Minnesota/511/1978(H9N2))
pKd: −log10 of the molar value.
quantity measured: pKd

Problem: Look at this sequence and give its reported pKd. DLLENLQAY
Solution: ≤ 4.70

###

- test target: HLA-B*27:05
- experiment description: IEDB peptide-MHC binding, purified MHC/direct/fluorescence; filed as Kd, often an IC50 or EC50 that approximates it; bounds were set here for any values at or beyond the usual limits of such assays
- condition details: source organism: Mycobacterium tuberculosis variant bovis
pKd: −log10 of the molar value.
quantity measured: pKd

Problem: // lookup pKd for TPREAPYEL
Solution: ≤ 4.70

###

I'd be grateful if you could share measured pKd for these entries.
- test target: HLA-B*58:01
- experiment description: IEDB peptide-MHC binding, purified MHC/direct/fluorescence; filed as Kd, often an IC50 or EC50 that approximates it; bounds were set here for any values at or beyond the usual limits of such assays
- condition details: source organism: Burkholderia mallei
pKd: −log10 of the molar value.

Problem: Dear colleague, I am looking for the recorded pKd of the following sequence: LAASVFFTF
Solution: 6.69

Problem: Look up pKd: IQRRGAQFQ
Solution: ≤ 4.70

Problem: What measured pKd goes with IYDFYNAEY ?
Solution: ≤ 4.70

###

- test target: HLA-A*26:01
- experiment description: IEDB peptide-MHC binding, purified MHC/competitive/fluorescence; filed as Kd, often an IC50 or EC50 that approximates it; bounds were set here for any values at or beyond the usual limits of such assays
- condition details: source organism: Influenza A virus (A/ruddy turnstone/Delaware/67/1998(H12N4))
quantity measured: Kd

Problem: Look at this sequence and give its reported Kd. IVFMWAIHH
Solution: ≥ 20 µM

###

- test target: HLA-A*02:06
- experiment description: IEDB peptide-MHC binding, purified MHC/competitive/radioactivity; filed as Kd, often an IC50 or EC50 that approximates it; bounds were set here for any values at or beyond the usual limits of such assays
- condition details: source organism: Vaccinia virus WR
pKd: −log10 of the molar value.
Returns 1.0 if the recorded pKd is greater than or equal to 6, and 0.0 otherwise.

Problem: Given the entry HLRASTTENA , answer whether its pKd meets or surpasses 6.
Solution: 0.0

Problem: Check if pKd >= 6 (inclusive). Item: DTCGASINIT
Solution: 0.0

Problem: Is pKd at least 6? Consider VIVENDNVI
Solution: 0.0

Problem: Hi team, for FTNSQIFNI , is the recorded pKd at or above 6?
Solution: 1.0

Problem: Quick check, pKd >= 6? NTCKPTILAT
Solution: 0.0

Problem: Is pKd for HAKYMVTDKT at or above 6?
Solution: 0.0

Problem: Is it the case that IVPDADPPI has pKd reaching or exceeding 6?
Solution: 1.0

Problem: Given MAFILGIII , state whether its pKd is at least 6.
Solution: 0.0

Problem: Please tell me: is the sequence VISTIANSNI at or over 6 in terms of pKd?
Solution: 0.0

Problem: Does IAGLKIEEI have a reported pKd of at least 6?
Solution: 0.0

Problem: Answer whether pKd of SIMSMMNIT is greater than or equal to 6.
Solution: 0.0

Problem: Hi, just wondering whether SVNASKTINA shows pKd of 6 or higher.
Solution: 0.0

Problem: Say whether LITLILSNKL shows pKd of 6 or more.
Solution: 1.0

Problem: Could you tell me if the measured pKd of LIFNVKSKLL reaches 6 or more?
Solution: 0.0

###

- test target: HLA-B*39:01
- experiment description: IEDB peptide-MHC binding, purified MHC/competitive/fluorescence; filed as Kd, often an IC50 or EC50 that approximates it; bounds were set here for any values at or beyond the usual limits of such assays
- condition details: source organism: Escherichia coli
quantity measured: Kd (nM)
The figure you give is taken to be in nM; do not add the unit.

Problem: What measured Kd is associated with LQEEMAETL on HLA-B*39:01?
Solution: 108

###

- test target: HLA-B*58:01
- experiment description: IEDB peptide-MHC binding, purified MHC/direct/fluorescence; filed as Kd, often an IC50 or EC50 that approximates it; bounds were set here for any values at or beyond the usual limits of such assays
- condition details: source organism: Mycobacterium tuberculosis
quantity measured: Kd

Problem: Returns the measured Kd for the input sequence. Input: IQAVFGFSL
Solution: ≥ 20 µM

###

- test target: HLA-B*15:17
- experiment description: IEDB peptide-MHC binding, purified MHC/competitive/fluorescence; filed as Kd, often an IC50 or EC50 that approximates it; bounds were set here for any values at or beyond the usual limits of such assays
- condition details: source organism: Escherichia coli F11
pKd: −log10 of the molar value.
quantity measured: pKd

Problem: Name the recorded pKd for GSGDDTWLI .
Solution: ≤ 4.70

###

- test target: HLA-B*46:01
- experiment description: IEDB peptide-MHC binding, purified MHC/competitive/fluorescence; filed as Kd, often an IC50 or EC50 that approximates it; bounds were set here for any values at or beyond the usual limits of such assays
- condition details: source organism: Vibrio cholerae 2740-80
pKd: −log10 of the molar value.
quantity measured: pKd

Problem: # input sequence: LAVFPAMFW ; wanted: its pKd
Solution: ≤ 4.70

###

- test target: HLA-A*01:01
- experiment description: IEDB peptide-MHC binding, purified MHC/competitive/radioactivity; filed as Kd, often an IC50 or EC50 that approximates it; bounds were set here for any values at or beyond the usual limits of such assays
- condition details: source organism: SARS coronavirus Tor2
For each record, write down the corresponding Kd.
Lab book: enter the figure in nM, no units written.

Problem: Quick one: Kd of VMMSAPPAEY ?
Solution: 154

Problem: Reported Kd for YTTTIKPVSY : what is it?
Solution: 41.6

Problem: Kd for DTSNPKTPKY ?
Solution: 194

Problem: So what does the record say about Kd for AMGKPVPYCY ?
Solution: 1990

Problem: Fill blank: measured Kd of the sequence YSNRNRFLY is ____.
Solution: 2.9

Problem: Need Kd, item AMQKESDDY
Solution: 2740

Problem: Reported Kd, sequence FTSCELYHY : ____
Solution: 1.73

Problem: I would be grateful if you could share the reported Kd for ITLVYKVYY .
Solution: 44.9

Problem: Bench note: what Kd did KTIVESCGNY show?
Solution: 240

Problem: Given the sequence IDATSTGNY , what is its reported Kd?
Solution: 3720

Problem: Please give the measured Kd for this sequence: LYIIKLVFLW
Solution: 13600

Values compiled from the Immune Epitope Database (IEDB).
